B1: Peroxisome proliferator-activated receptor delta, residues 71 to 145; numbered along this chain, Q03181 (parent)
chain: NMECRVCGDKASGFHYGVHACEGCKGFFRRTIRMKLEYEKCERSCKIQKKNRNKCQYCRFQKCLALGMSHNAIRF

- Variants of: B1
- procedure_summary: abundance fitness (aPCA) (normalised: wild type 0, dead -1); higher = more abundant; growth selection in yeast, the domain comes from the species named
- stated_conditions: Homo sapiens
Each record gets a class by abundance fitness: low range = under -0.4, mid range = from -0.4 up to -0.07, high range = -0.07 and over

Take a look at these entries with their results.
>  <seq>
NMECRVCGDKASGFHYGVHACEGCKGFFRCTIRMKLEYEKCERSCKIQKKNRNKCQYCRFQKCLALGMSHNAIRF

>  <qualitative_label>
mid range

$$$$
>  <seq>
NMECRVCGDKASGFHYGVHACEGCKGFFRRTIRMQLEYEKCERSCKIQKKNRNKCQYCRFQKCLALGMSHNAIRF

>  <qualitative_label>
high range

$$$$
>  <seq>
NMECRVCGDKASGFHYGVHACEGCKGFFRRTIRMKLEYEKCERSCKIQKKNRNKCQYDRFQKCLALGMSHNAIRF

>  <qualitative_label>
low range

$$$$
>  <seq>
NMECRVCGDKASGFHYGVHACEGCKGFFRRTIRMKLEYEKCERSCKIQKKNRNKCQYCRFWKCLALGMSHNAIRF

>  <qualitative_label>
low range

$$$$
>  <seq>
NMECRVCGDKASGFHYGVHACEGCKGFFRRTIRMKLYYEKCERSCKIQKKNRNKCQYCRFQKCLALGMSHNAIRF

>  <qualitative_label>
mid range

$$$$
>  <seq>
NMECRVCGDKASGFHYGVHACEGCKGFFRRTIRMKLEYEKCERSCKIQKKNHNKCQYCRFQKCLALGMSHNAIRF

>  <qualitative_label>
mid range

$$$$

Continue with the variant presented below.
-- ask Which category fits this record: NMECRVCGDKASGFHYGVHACEGCKGFFRRTIRMKLEYEKCERSCKIQKKNRNKCQYCRFQKCLKLGMSHNAIRF
-- reply mid range

Entry source: the Human Domainome abundance scans (Beltran et al. 2025)
